Just for reference, the supplement of paper PMC6555819 is where these values come from.

PBM binding z-score by entry:
system: PPARg DBDmut:RXRa IVT, anti-PPARg (DBD mutation: PPARg1 K132A/R137A, NR concentration 270 nM, RXRa partner concentration 90 nM); assay: PBM binding z-score (relative to random genomic background probes); higher = stronger binding; sequences stand for … in GC…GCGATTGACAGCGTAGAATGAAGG
API doc: respond with a numeric literal and nothing else, no unit.

The cases that follow already have their PBM binding z-score on record.
| residues | assay.metric | reported.value |
| --- | --- | --- |
| GCTATTAGTTGAAAGGGCAGCCGAATGATTCTCG | PBM binding z-score | -0.735 |
| AGAACGAGGGCACGCAGAGTTGATAGCAGAGTAG | PBM binding z-score | 0.653 |
| GCTAGTAGGCCATTTGGGTCACTCAATGACGGGC | PBM binding z-score | -0.157 |

Documented PBM binding z-score of ACAGACAGTTGATGAAGGTAACTCAGGCTATCAT : 0.732

Documented PBM binding z-score of TCTCGGAGGACAGGAAGGTCAGAGCTTTCCAGAG : -1.38

Documented PBM binding z-score of ATATATAGGTTAAGGGTCATTCAGGTTGGTTCGC : 2.46

Documented PBM binding z-score of TCTAGTTGGTCACGGATGTCACACACGACGGGTA : 1.14

Documented PBM binding z-score of ATATGTAGGTTAAGGGTGATTCAGGTTGGTTCGC : 1.59

Documented PBM binding z-score of GGAACGAGGGCAAAGTTGATAGCTTCTGTCGACG : 0.574

###

test system: RARg homodimer (NR concentration 270 nM); test: PBM binding z-score (relative to random genomic background probes); higher = stronger binding; sequences stand for … in GC…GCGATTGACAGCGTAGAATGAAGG
PBM binding z-score by entry:
API doc: respond with a numeric literal and nothing else, no unit.

| residues | reported.value |
| --- | --- |
| ATCTCTAGGTAGGACTCAGTTCAGTGAAGAACGC | 0.0916 |
| CCTACTGGGGCAAAAAGGTCATTGATGCCGATAA | 4.5 |
| ATCTCTACGTAAAGATAGTTCAGTGAATGCAAAT | 0.572 |

# lookup: CCTATTAGTTGACAATAAGGGCAACCGAAGCTCG on RARg homodimer (NR concentration 270 nM), PBM binding z-score = 0.963

# lookup: AGTCAAAGTTCAGGACGAGGTAACGAAAAGCACG on RARg homodimer (NR concentration 270 nM), PBM binding z-score = 4.62

# lookup: CCGACTGGGGCAAAGGTTACCGTACTCAGTACGA on RARg homodimer (NR concentration 270 nM), PBM binding z-score = 1.64

# lookup: TCATATAGGTAAAGGTGAAGGTCGAACGATATGA on RARg homodimer (NR concentration 270 nM), PBM binding z-score = 2.07

###

system: PPARg homodimer (NR concentration 180 nM); experiment: PBM binding z-score (relative to random genomic background probes); higher = stronger binding; sequences stand for … in GC…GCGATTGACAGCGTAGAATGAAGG
Threshold rule: PBM binding z-score greater than or equal to 0.7 is Yes; below that, No.

Study these solved cases before continuing.
| residues | cat |
| --- | --- |
| TCTAGTTGATCAAAGGTCACACACTCGAAATGCG | Yes |
| TTTGCTAGGTCAGTTGGTCAGCTAACGAGCTGCC | No |
| TTACCAAGGTGAAAGGTGGTTGATGCACGCCTTG | Yes |
| CAAACTAGGTCAAAGCTCAAAGTCGAGCCAACCA | Yes |
| CAGCCTAGGTCACGGCCAGTATAGGAGGAACGTT | Yes |
| TGAATGAGGGTATAAGATCAGGGAACGTTGCAAA | No |
| TAGCCTAGGTCAAATCGGGCCAGTATACGCTATA | Yes |
| TCTTGAAGATCAACAGGAGGTTAAGAAAGATCGA | No |

Item CCTCGGAGGACAGAAGGTCAGGGCTGTCCGCTTT with PBM binding z-score of 0.7 or above? Yes

Item TCGAGTAGGTTAGTAGGGGCATTCAGCCAACATA with PBM binding z-score of 0.7 or above? No

###

tested on: VDR homodimer (NR concentration 270 nM); assay: PBM binding z-score (relative to random genomic background probes); higher = stronger binding; sequences stand for … in GC…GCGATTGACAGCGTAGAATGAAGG
PBM binding z-score by entry:
API doc: respond with a numeric literal and nothing else, no unit.

The cases that follow already have their PBM binding z-score on record.
| residues | assay.system | PBM binding z-score |
| --- | --- | --- |
| ATCGAAAGGTCGAAGCTGAGTATACCCACCCGAA | VDR homodimer (NR concentration 270 nM) | 0.746 |
| ACTAGCTGGCCAAGTTTGGGTCACTCAAACAAAG | VDR homodimer (NR concentration 270 nM) | -0.123 |
| CGTGCAAGGTCATAGGAGGTCAGTGAAGACAGAT | VDR homodimer (NR concentration 270 nM) | 4.63 |
| ATCGAAAGGCCGAGGTGAGTATAGAGAAAGGGAA | VDR homodimer (NR concentration 270 nM) | -0.433 |
| GCTAGTTGCTCAGTAAAAGGTCACACACCGGTCG | VDR homodimer (NR concentration 270 nM) | 1.14 |
| CGAACGAGGGCGTGAGTTGATAGCAAATGCCGAT | VDR homodimer (NR concentration 270 nM) | 0.785 |
| TCATATAGGTAAAGCTGAAAGTCGAACGATATGA | VDR homodimer (NR concentration 270 nM) | -0.537 |
| CATACAGGGTCTGCTAGGCCAGAGTAGGGACGGC | VDR homodimer (NR concentration 270 nM) | -0.486 |
| CAAACTAGGTCAAGGTCAAAGTTGGTTTGTGCCA | VDR homodimer (NR concentration 270 nM) | 4.14 |
| CCGACTGGGGCATAAGGTTACTATAAGCCAGCCC | VDR homodimer (NR concentration 270 nM) | 0.0174 |

Documented PBM binding z-score of CCTCGGATGACAGAAGGTCAGAGCTGTCCGCTTT : 0.287

Documented PBM binding z-score of CCTAGCAGGGCAATCTGGGTCACTCAAGGCTTGA : -0.354

###

test system: VDR homodimer (NR concentration 270 nM); test: PBM binding z-score (relative to random genomic background probes); higher = stronger binding; sequences stand for … in GC…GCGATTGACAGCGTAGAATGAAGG
PBM binding z-score by entry:
API doc: respond with a numeric literal and nothing else, no unit.

| residues | PBM binding z-score |
| --- | --- |
| TCTCGTAGGACACGAAGGTCAGAGCTTTCCAGAG | 0.463 |
| GCCAGCAGGCCATTTGGGTCACTCAATGACGGGC | 0.49 |

Documented PBM binding z-score of TGAATGAGGATATAAGATCAGGGAACGTTGCAAA : -0.0248

Documented PBM binding z-score of CAAACTAGGTCAAAGAGGTCAAAGTCCGTGCGTA : 6.65

Documented PBM binding z-score of AGAACGAGGGAACGCTGAGTTGATAGCAGAGTAG : 0.248

Documented PBM binding z-score of CCAGACAGGTGAAAGGTATCTCAGTCTGGTACGC : -0.194

Documented PBM binding z-score of TCAGACTGGTGAAGGTAACTCAGGTACGCAGTCG : -0.271

Documented PBM binding z-score of TCTTGTAGATCGAGCAGGTTAAGAAAGCCTGAGT : -0.257

Documented PBM binding z-score of TCTATTACTTGATTAGGGCAACCGAAACAGCGGA : 0.603

Documented PBM binding z-score of TTACCAAGGTGAAAGGTCGTTGACGCACGCCTTG : 1.41

Documented PBM binding z-score of GATACAGGGTCAGCTAGCGGCCAGAGTATGGAAA : 0.352

Documented PBM binding z-score of TCATATAGCTAAATGCTAGGTGAAAGTCCGATCT : -0.29

###

system: RARb homodimer (NR concentration 270 nM); assay: PBM binding z-score (relative to random genomic background probes); higher = stronger binding; sequences stand for … in GC…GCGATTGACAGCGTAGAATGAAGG
PBM binding z-score by entry:
API doc: respond with a numeric literal and nothing else, no unit.

The cases that follow already have their PBM binding z-score on record.
| residues | assay.metric | reported.value |
| --- | --- | --- |
| CGCACGAGGGCATGAGTTGATAGCAAATGCCGAT | PBM binding z-score | 1.2 |
| ATCTCTAGGTAAAGATGGTTCAGTGAATGCAAAT | PBM binding z-score | -0.0603 |
| GATACAGGTTCAAGGCCAGAGTACGCGTATTGAT | PBM binding z-score | 1.44 |
| CCTTATGGGTCAAGGTTATAGCACGGGTGGTACG | PBM binding z-score | 2.91 |
| TCTTGTAGATCAGCAGGTTAGGAAAGCTGGCCAA | PBM binding z-score | 0.063 |
| GATACAGGGTCAAGGCTAGAGTACGCGTATTGAT | PBM binding z-score | 3.75 |

Documented PBM binding z-score of GGAACGAGGACATTCGAGTTGATAGCATGGCGAT : -0.261

Documented PBM binding z-score of ATATGTAGGCTACATCCGGGTCATTCAGGCTATG : 2.14

Documented PBM binding z-score of TCTATTAATTGATTAGGGCAACCGAAACAGCGGA : 0.555

Documented PBM binding z-score of CCTGTTAGGTCAATGGTCAGCTAAAGCAGCTCGC : 3.5

Documented PBM binding z-score of ATCGAAAGGTCGATGGTGAGTATACCCACCCGAA : 1.45
